- Tested target: DDR1 kinase (Homo sapiens, UniProt Q08345)
- Sequence (Q08345 19-876 isoform Q08345-2 limits assumed): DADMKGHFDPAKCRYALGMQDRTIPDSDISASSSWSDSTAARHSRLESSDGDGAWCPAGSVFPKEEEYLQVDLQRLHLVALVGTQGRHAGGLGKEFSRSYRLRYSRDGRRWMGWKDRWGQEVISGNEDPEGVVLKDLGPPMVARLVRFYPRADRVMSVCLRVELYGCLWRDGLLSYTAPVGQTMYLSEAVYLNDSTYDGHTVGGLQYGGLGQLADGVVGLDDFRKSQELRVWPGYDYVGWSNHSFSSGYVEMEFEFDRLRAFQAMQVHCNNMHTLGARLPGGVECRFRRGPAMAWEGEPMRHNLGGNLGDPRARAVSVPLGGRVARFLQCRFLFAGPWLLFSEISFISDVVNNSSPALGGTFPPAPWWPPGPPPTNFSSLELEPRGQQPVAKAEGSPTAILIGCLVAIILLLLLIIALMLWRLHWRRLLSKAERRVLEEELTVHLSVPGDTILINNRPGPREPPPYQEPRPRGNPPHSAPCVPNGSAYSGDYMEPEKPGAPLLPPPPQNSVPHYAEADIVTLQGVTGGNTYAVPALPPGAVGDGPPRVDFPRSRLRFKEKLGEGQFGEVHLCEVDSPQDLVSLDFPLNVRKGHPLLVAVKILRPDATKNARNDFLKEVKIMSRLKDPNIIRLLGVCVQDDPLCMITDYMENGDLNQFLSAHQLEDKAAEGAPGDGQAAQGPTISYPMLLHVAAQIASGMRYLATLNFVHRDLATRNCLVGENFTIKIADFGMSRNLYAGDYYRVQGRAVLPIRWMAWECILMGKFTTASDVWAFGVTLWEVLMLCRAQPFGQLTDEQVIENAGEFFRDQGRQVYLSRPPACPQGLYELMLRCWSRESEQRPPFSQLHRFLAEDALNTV
- Protocol summary: Evaluation of DDR1 kinase inhibition (LANCE Ultra TR-FRET kinase assay)
- Format: biochemical
- Parameters: purchased Carna Biosciences 08-113
- Recorded conditions: DDR1 protein 0.5 nM, LANCE Ultra ULight-poly GAT substrate, 2 hours at room temperature, duplicate; read-out: DDR-1 IC50
Counter-ions that a name gives are not always drawn.
Consider the following partition of reported IC50 into named classes: category 1: < 7 nM; category 2: ≥ 7 nM and < 30 nM; category 3: ≥ 30 nM

Example results:
[[record]]
compound = "Nc1cc(C(=O)N2CC(c3nn(CC(=O)N4CCC[C@@H]4C(F)(F)F)c4cc(F)cc(F)c34)C2)ccn1 [Compound E-50]"
class = "category 2"

[[record]]
compound = "Nc1cc(C(=O)N2CC(c3nn(CC(=O)N4CCCc5ccccc54)c4cc(F)cc(F)c34)C2)ccn1 [Compound E-158]"
class = "category 1"

[[record]]
compound = "Nc1cc(C(=O)N2CC(c3nn(CC#CC4CC4)c4cc(F)cc(F)c34)C2)ccn1 [Compound E-156]"
class = "category 2"

[[record]]
compound = "O=C(Cn1nc(C2CN(C(=O)c3ccnc(NC4CC4)c3)C2)c2c(F)cccc21)NCC(F)(F)F [Compound E-65, hydrochloride]"
class = "category 1"

[[record]]
compound = "Cc1cnc(N)cc1C(=O)N1CC(c2nn(CC(=O)N3CCC[C@H]3C(F)(F)F)c3cc(F)cc(F)c23)C1 [Compound E-78, hydrochloride]"
class = "category 2"


Which bin should I file O=C(c1ccnc(NC2CC2)c1)N1CC(c2nn(CC(=O)N3CCC[C@H]3C(F)(F)F)c3cccnc23)C1 [Compound E-121] under?
category 2

Hi there! Could you help me figure out the category for Nc1cc(C(=O)N2CC(c3nn(Cc4noc(C(F)(F)F)n4)c4ccccc34)C2)ccn1 [Compound E-217] please?
category 3

Band for the recorded IC50 of Nc1cc(C(=O)N2CC(c3nn(Cc4noc(-c5cccc(C(F)(F)F)c5)n4)c4cccc(F)c34)C2)ccn1 [Compound E-117] ?
category 3

Kindly identify the class of CC[C@@H]1CCCN1C(=O)Cn1nc(C2CN(C(=O)c3ccnc(N)c3)C2)c2ccccc21 [Compound E-222] .
category 1

Category lookup for the compound Cc1noc(Cn2nc(C3CN(C(=O)c4ccnc(N)c4)C3)c3c(F)cccc32)n1 [Compound E-109]
category 3

// bin(item) where item = Nc1cc(C(=O)N2CC(c3nn(CC(=O)N4CCC[C@H]4C(F)(F)F)c4cc(F)cc(F)c34)C2)cnn1 [Compound E-16]
category 2

Band for the recorded IC50 of CN(CC(F)(F)F)C(=O)Cn1nc(C2CN(C(=O)c3ccnc(N)n3)C2)c2cc(F)c(F)cc21 [Compound E-282] ?
category 3

Pick a category. Item: Nc1cc(C(=O)N2CC(c3nn(CC(=O)N(CC(F)(F)F)C4CC4)c4ccccc34)C2)c(F)cn1 [Compound E-251]
category 1
